B1: Caulobacter ParB omega fusion; a variant is named by its letters at X, in order, B8GW30 (parent)
chain: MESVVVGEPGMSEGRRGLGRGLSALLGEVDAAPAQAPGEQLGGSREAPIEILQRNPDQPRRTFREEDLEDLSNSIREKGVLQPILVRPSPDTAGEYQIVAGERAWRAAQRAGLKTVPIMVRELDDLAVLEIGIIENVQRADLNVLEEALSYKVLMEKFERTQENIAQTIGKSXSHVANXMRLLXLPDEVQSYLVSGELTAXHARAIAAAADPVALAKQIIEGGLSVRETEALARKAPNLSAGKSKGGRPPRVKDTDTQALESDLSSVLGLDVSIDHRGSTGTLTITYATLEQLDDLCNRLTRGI

- Variants of: B1
- assayProtocol: one-hybrid fitness for binding NBS DNA (the Noc-binding site; scaled: cognate 1, non-cognate 0); higher = stronger binding
- conditionLabel: with NBS DNA site
In all, about 81,000 sequences were measured (“one-hybrid fitness for binding NBS DNA”: median about -0.1, highest 2% from about 0.36 on). What follows is part of a selection rich in the highest values, with near analogues and random picks from the rest.
testReadout: one-hybrid fitness for binding NBS DNA

[[record]]
residuechange = "LTHY"
result = "≤ 0.2"

[[record]]
residuechange = "YMAS"
result = "≤ 0.2"

[[record]]
residuechange = "TGSY"
result = "≤ 0.2"

[[record]]
residuechange = "GERG"
result = "≤ 0.2"

[[record]]
residuechange = "GRAV"
result = "≤ 0.2"

[[record]]
residuechange = "DRKR"
result = 0.238

[[record]]
residuechange = "RQTH"
result = "≤ 0.2"

[[record]]
residuechange = "QTRI"
result = 0.478

[[record]]
residuechange = "QYVR"
result = 0.381

[[record]]
residuechange = "KCVR"
result = "≤ 0.2"

[[record]]
residuechange = "RLHW"
result = "≤ 0.2"

[[record]]
residuechange = "RKKQ"
result = 0.242

[[record]]
residuechange = "RQTN"
result = "≤ 0.2"

[[record]]
residuechange = "RKKT"
result = 0.691

[[record]]
residuechange = "GVCG"
result = "≤ 0.2"

[[record]]
residuechange = "WTTS"
result = "≤ 0.2"

[[record]]
residuechange = "TKRI"
result = "≤ 0.2"

[[record]]
residuechange = "QTYI"
result = "≤ 0.2"

[[record]]
residuechange = "QTYK"
result = "≤ 0.2"

[[record]]
residuechange = "RQTP"
result = "≤ 0.2"

[[record]]
residuechange = "KRKR"
result = 0.849


Data origin: a collection of fitness landscapes (doi:10.1016/j.celrep.2020.107928)
